- measurement target: androgen receptor (AR) (Homo sapiens, UniProt P10275)
- Sequence (P10275 whole entry): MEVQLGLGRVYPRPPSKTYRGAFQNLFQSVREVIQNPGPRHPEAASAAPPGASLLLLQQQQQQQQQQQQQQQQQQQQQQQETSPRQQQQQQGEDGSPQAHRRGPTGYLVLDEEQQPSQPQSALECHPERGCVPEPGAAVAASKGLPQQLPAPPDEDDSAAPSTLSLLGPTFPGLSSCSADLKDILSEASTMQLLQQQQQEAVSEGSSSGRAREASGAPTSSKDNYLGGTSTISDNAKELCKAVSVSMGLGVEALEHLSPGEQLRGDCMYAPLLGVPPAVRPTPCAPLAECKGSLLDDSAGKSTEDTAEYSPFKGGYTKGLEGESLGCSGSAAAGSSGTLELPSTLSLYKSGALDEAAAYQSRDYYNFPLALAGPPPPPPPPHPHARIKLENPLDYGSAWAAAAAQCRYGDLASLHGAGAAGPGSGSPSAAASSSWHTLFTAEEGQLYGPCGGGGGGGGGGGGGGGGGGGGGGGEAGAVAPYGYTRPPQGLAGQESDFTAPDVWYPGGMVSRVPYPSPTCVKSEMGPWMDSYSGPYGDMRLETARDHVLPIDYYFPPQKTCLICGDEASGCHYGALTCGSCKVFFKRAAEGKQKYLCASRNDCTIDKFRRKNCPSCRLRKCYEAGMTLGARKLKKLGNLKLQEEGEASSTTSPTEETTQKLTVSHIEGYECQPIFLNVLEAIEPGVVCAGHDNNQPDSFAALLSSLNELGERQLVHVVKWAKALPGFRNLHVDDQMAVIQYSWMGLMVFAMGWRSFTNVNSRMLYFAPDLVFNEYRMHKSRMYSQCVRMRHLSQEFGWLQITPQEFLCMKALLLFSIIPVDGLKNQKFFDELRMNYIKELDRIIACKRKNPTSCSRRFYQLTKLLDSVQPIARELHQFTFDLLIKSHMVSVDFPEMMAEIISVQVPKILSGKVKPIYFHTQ
- test description: Degradation of androgen receptor (AR) protein in VCaP cells by ELISA
- Format: cell-based
attribute measured: DC50

Please review the following examples before continuing.
compound	measurement target	DC50
Cc1cc(O[C@H]2CC[C@H](NC(=O)c3ccc(N4CCC(CN5CCC6(CC5)CN(c5ccc7c(c5)C(=O)N(C5CCC(=O)NC5=O)C7=O)C6)CC4)nn3)CC2)ccc1C#N (some centres unmarked)	androgen receptor (AR) (Homo sapiens, UniProt P10275)	< 0.01 µM
N#Cc1ccc(O[C@H]2CC[C@H](NC(=O)c3cnc(N4CCC(CN5CCC6(CC5)CN(c5ccc7c(c5)C(=O)N(C5CCC(=O)NC5=O)C7=O)C6)CC4)nn3)CC2)cc1Cl (some centres unmarked)	androgen receptor (AR) (Homo sapiens, UniProt P10275)	< 0.01 µM
N#Cc1ccc(O[C@H]2CC[C@H](NC(=O)c3ccc(N4CCC(CN5CCC6(CC5)CN(c5ccc7c(c5)C(=O)N(C5CCC(=O)NC5=O)C7=O)C6)CC4)nn3)CC2)cc1C(F)(F)F (some centres unmarked)	androgen receptor (AR) (Homo sapiens, UniProt P10275)	< 0.01 µM

IN: For the record N#Cc1ccc(OC2CCC(NC(=O)c3cnc(N4C[C@H]5CC[C@@H](C4)N5C[C@H]4[C@@H]5CN(c6cc7c(cc6F)C(=O)N(C6CCC(=O)NC6=O)C7=O)C[C@@H]54)cn3)CC2)cc1Cl (some centres unmarked) , what value of DC50 is listed for androgen receptor (AR) (Homo sapiens, UniProt P10275)?
OUT: 0.01 to 0.1 µM

IN: For the record N#Cc1ccc(O[C@H]2CC[C@H](NC(=O)c3ccc(N4CCC(CN5CC6(C5)CN(c5cc7c(cc5F)C(=O)N(C5CCC(=O)NC5=O)C7=O)C6)CC4)nn3)CC2)cc1Cl (some centres unmarked) , what value of DC50 is listed for androgen receptor (AR) (Homo sapiens, UniProt P10275)?
OUT: < 0.01 µM
